# assay_comment: soluble on expression in E. coli; label from the status in PepcDB or PDB records
assay_endpoint: soluble on expression in E. coli

Recorded soluble on expression in E. coli, per entry:
[
  {
    "ordered_residues": "MGSDKIHHHHHHMKALWILLSLTLWLFGAQNLELIKGQALFLELDKKDFLSLKNNDKNIPTFAHPKNQEKILAIFSLPYKNPPQNTKLIAFYKDKKEEIFIKTLEGNYKSEKLQIENKKIFPPKTIQERITKELKEANAIYSSYTPKALFNGAFNIPLNSFITSDFGKARTFNEKVASYHSGTDFRATTGTPIYAANSGVVKIAKDRYFAGNSVVIDHGFGIYSQYYHLSKIDVKIGQKIKKGELIGLSGATGRVSGPHLHFGILAGGKQVDPLDFVSKFNAIFQ",
    "soluble on expression in E. coli": "not soluble"
  },
  {
    "ordered_residues": "MQVFDLSVDGATTIDIGASTGGFTDVMLQNSAKLVFAVDVGTNQLAWKLRQDPRVVSMEQFNFRYAEKTDFEQEPSFASIDVSFISLSLILPALHRVLADQGQVVALVKPQFEAGREQIGKNGIIRDAKVHQNVLESVTAMAVEVGFSVLGLDFSPIQGGHGNIEFLAYLKKEKSASNQILAEIKEAVERAHSQFKNE",
    "soluble on expression in E. coli": "not soluble"
  },
  {
    "ordered_residues": "MGSDKIHHHHHHMATENALYEILTEKIKQDTLVLPTLPEVALKVRSAADDPDINLNQMSDIIAHDPALSLGMLKVANNALMGRSIKVETVPQAVTRIGLIQIKSIATAMAIEQVFVSNNDVVAMYMNKAWVKTIDIASVAISLMNIYLKENKHTSLSLDTITLASLIHNIGVLPILTEAENHPDVFANPTFLQQAIIKLSGRVGGAITRKWGFSEEFTLLAESWSDLTILPSEVHYLDFIRAGAIYHNVFKNESTKVALLNNYTKKGILPEVDYMDSDEFKGMCEDVRAMFI",
    "soluble on expression in E. coli": "not soluble"
  },
  {
    "ordered_residues": "MERSLDSLAGMAKSAFGAGTSAAMRQATSPKTILEYIINFFTCGGIRRRNETQYQELIETMAETLKSTMPDRGAPLPENIILDDMDGCRVEFNLPGENNEAGQVIVRVSKGDHSETREIPLASFEKICRALLFRCEFSLPQDSVILTAQGGMNLKGAVLTGANLTSENLCDADLSGANLEGAVLFMADCEGANFKGANLSGTSLGDSNFKNACLEDSIMCGATLDHANLTGANLQHASLLGCSMIECNCSGANMDHTNLSGATLIRADMSGATLQGATIMAAIMEGAVLTRANLRKASFISTNLDGADLAEANLNNTCFKDCTLTDLRTEDATMSTSTQTLFNEFYSENI",
    "soluble on expression in E. coli": "not soluble"
  }
]

Report soluble on expression in E. coli for each item below.
1. AIANDDRATAFNALKNKTVCVQGDGNSRQFYHALVEILSNHSSAIPVNKNGNDFCNAPFAQCPQDTYYFDLVDKSDNLSVKLYWRWAPEFSDIECPMKVPSGFTPGSNYSFPSGPDTLSCDINIMDAGQWELFEKDANVTTAGYSQGVSNLSKCFSSDKSAKYFWIAAYALTPEQLQIHLPYNNTDVERINEVATQGLNSTACVLNGYDVTVNAFNDTKEATTDGIHYLGWINEQVVHLFFNAVTNSSAPTVPSSNVSVTSPNVQLGQVPNLNPSTTNSFLPVQTIVTVPSSSATSASSGLNFGGSSQGGGSGIPQL
2. MEAEMSDERCALVLEGGAMRGMYTAGVLDCFMDHDISFDAVIGVSAGALFGVNLLSKQRGRVIRYNKRFNSDKNYMGIRPLLREKNIVSTKYAYDTVPRELDPFDDEEYKKSDIPFYAVVTNIRTGKPEYVQIKSVFDQMDVLRASGSMPVVSKPVKLGNEWYLDGAVTDSIPYEHMLDMGYDRVVVVLTKPADYIKKPMPRLFTSVYKKRFPRFYEAFSNRHIMYNYQLEHLKELEKQGIAEVLRPSEHIKISKVEKDPNKLESLYQLGLRDAKRLLADKQGMEKQ
3. MGSDKIHHHHHHMSKTLKEITDQKNELKKFFENFVLNLEKTEIFSEIQKNLTDEVLFVGCGSSYNLALTISYYFERVLKIRTKAIPAGEVAFQKIPDLEERGLAFLFSRTGNTTEVLLANDVLKKRNHRTIGITIEEESRLAKESDLPLVFPVREEAIVMTKSFSMILLSLMFLADKIAGNSTERFSELVGYSPEFFDISWKVIEKIDLKEHDHFVFLGMSEFFGVSLESALKCIEMSLTFSEAYSTLEYRHGPKALVKKGTLVFMQKVSGMDEQEKRLRKELESLGATVLEVGEGGDIPVSNDWKSAFLRTVPAQILGYQKAISRGISPDKPPHLEKTVVL

## Result
soluble
not soluble
soluble

Report soluble on expression in E. coli for each item below.
1. MSKDDPINSIFFEHQEAALCAQHALNMLLQDALYKWQDLRDLAIQMDKMEQQILGNANPTPGRSENMNESGYFSIQVLEKALETFSLKLTNIENPAMVDYKNNPLTARAYICNLREHWFVLRKFGNQWFELNSVNRGPKLLSDTYVSMFLHQVSSEGYSIFVVQGVLPRSDADDLISLCPVVPPKVTPKKEQKLEKVMTKFFNTVGKRLGGGSGAPPDSQEEKDLAIAFAMSMETKDGSEVSRSSAEIDEENLRKAIELSQAPGPSEPAEIPLLTRSRSSTPPGASEPFSNAEQQRRDRQKFLERFEKKKEERNDEK
2. SMHPVAGSNPAFCGPGKPSCLNEDAMRAADQFDLYSSQQNKYSHTVSHKPMVCQRQDPLNETHLQPTSGRNIEIKDELKKKKNLNRSGKRGRPSGTTKSAGYRTSTGRPLGTTKAAGFKTSPGRPLGTTKAAGYKVSPGRPPGSIKALSRLADLGYGCGTAAFPYPMMHSRVVHGLQETSGEVKPPSE
3. MGSDKIHHHHHHMKYLIVVAHPDDEVLGAGASISRWTQNGDIVDVAIMCAEAKARAFRPDDNELEDDTNASTKYLGVDRIFEATFPNIEMNTVPHLRLVQFIESAIKESEPDIVITHHPADTNNDHLQTSMACQEAIRLFQRRPEVKRVKEFWYMEVPSCTEWAINNAMNLFRPNCYVEVGQEGVDAKITALGMYRGVMRPYPHPRSAEYITGLAAVRGSQWGTNYAESFEIVLREY

## Result
1: not soluble; 2: soluble; 3: not soluble

## Task # soluble on expression in E. coli lookup, item MAHHHHHHMVFNQDHHEKECADAFVLARDGMSDFEGEKIERAFRGVTAALRFLDYQETTGTSTRSPTGSNSNAEQRSSGSHEPLVSGEDTNYHHVVCLVRSLDGEKENTPVN
## Result not soluble
